- assay_procedure: Plasma concentration in Sprague-Dawley rat at 0.2 mg/kg, iv administered as cassette dose after 1 hr by LC-MS/MS analysis
- Assay type: ADME, organism-based
parameter: concentration at 1 h (ng/mL)

Some entries whose results are on file:
INPUT: Value lookup for concentration at 1 h; key = `CNCc1cc(-c2cccnc2F)n(S(=O)(=O)c2cccnc2)c1`
OUTPUT: 8.4

INPUT: Value lookup for concentration at 1 h; key = `CNCc1cn(S(=O)(=O)c2cccnc2Cl)c(-c2cccnc2F)c1F`
OUTPUT: 10.1

INPUT: Value lookup for concentration at 1 h; key = `CNCc1cn(S(=O)(=O)c2ccc(C)nc2)c(-c2cccnc2F)c1F`
OUTPUT: 10.8

INPUT: Value lookup for concentration at 1 h; key = `CNCc1cn(S(=O)(=O)c2cccc(C)n2)c(-c2cccnc2F)c1F`
OUTPUT: 10.3

a = CNCc1cn(S(=O)(=O)c2cccnc2C)c(-c2cccnc2F)c1F
b = CNCc1cn(S(=O)(=O)c2cccc(OC)n2)c(-c2cccnc2F)c1F
INPUT: From the recorded data, which exceeds the other in concentration at 1 h: a or b ? // caller expects the label of the chosen entry
OUTPUT: b
(b: 14.9 ng/mL, a: 8 ng/mL)

* * *

- assay_procedure: AUC in Sprague-Dawley rat plasma at 0.2 mg/kg, iv administered as cassette dose by LC-MS/MS analysis
- Assay type: ADME, organism-based
parameter: AUC (ng·h/mL)

INPUT: Value lookup for AUC; key = `CNCc1cn(S(=O)(=O)c2cccs2)c(-c2cccnc2F)c1F`
OUTPUT: 42

I = CNCc1cn(S(=O)(=O)c2cc(OC)ccn2)c(-c2cccnc2F)c1F
II = CNCc1cn(S(=O)(=O)c2ccco2)c(-c2cccnc2F)c1F
INPUT: Problem: Given the entries I and II , determine which has the lower reported AUC. // caller expects the label of the chosen entry
OUTPUT: II
(II: 26 ng·h/mL, I: 38 ng·h/mL)

* * *

- assay_procedure: Lipophilicity, log D of the compound at pH 7.4 by HPLC analysis
- Type: physicochemical
- cond: buffer
parameter: logD

Some entries whose results are on file:
INPUT: Value lookup for logD; key = `CNCc1cn(S(=O)(=O)c2ccco2)c(-c2cccnc2F)c1F`
OUTPUT: 0.2

INPUT: Value lookup for logD; key = `CNCc1cn(S(=O)(=O)c2cncc(F)c2)c(-c2cccnc2F)c1F`
OUTPUT: 0.83

INPUT: Value lookup for logD; key = `CNCc1cn(S(=O)(=O)c2cc(C)ccn2)c(-c2cccnc2F)c1F`
OUTPUT: 0.48

INPUT: Value lookup for logD; key = `CNCc1cn(S(=O)(=O)c2ccc(OC)cn2)c(-c2cccnc2F)c1F`
OUTPUT: 0.64

INPUT: Value lookup for logD; key = `CNCc1cn(S(=O)(=O)c2ccoc2)c(-c2cccnc2F)c1F`
OUTPUT: 0.45

A = CNCc1cn(S(=O)(=O)c2cccnc2Cl)c(-c2cccnc2F)c1F
B = CNCc1cn(S(=O)(=O)c2cc(OC)ccn2)c(-c2cccnc2F)c1F
INPUT: Problem: Given the entries A and B , determine which has the lower reported logD. // caller expects the label of the chosen entry
OUTPUT: B
(B: 0.51, A: 0.75)

* * *

- assay_procedure: Drug uptake in Sprague-Dawley rat stomach at 0.2 mg/kg, iv administered as cassette dose after 24 hrs by LC-MS/MS analysis
- Assay type: ADME, organism-based
- cond: read-out: Drug uptake
parameter: concentration at 24 h (ng/g)

INPUT: Value lookup for concentration at 24 h; key = `CNCc1cn(S(=O)(=O)c2cccc(OC)n2)c(-c2cccnc2F)c1F`
OUTPUT: 47.9

INPUT: Value lookup for concentration at 24 h; key = `CNCc1cc(-c2cccnc2F)n(S(=O)(=O)c2cccnc2)c1`
OUTPUT: 19.6

INPUT: Value lookup for concentration at 24 h; key = `CNCc1cn(S(=O)(=O)c2cccnc2)c(-c2cccnc2F)c1F`
OUTPUT: 130

INPUT: Value lookup for concentration at 24 h; key = `CNCc1cn(S(=O)(=O)c2cncc(F)c2)c(-c2cccnc2F)c1F`
OUTPUT: 38.3

I = CNCc1cn(S(=O)(=O)c2ccc(C)nc2)c(-c2cccnc2F)c1F
II = CNCc1cn(S(=O)(=O)c2cccs2)c(-c2cccnc2F)c1F
INPUT: From the recorded data, which exceeds the other in concentration at 24 h: I or II ? // caller expects the label of the chosen entry
OUTPUT: I
